Taken from patent US20220267469A1.

Biological target: T1, Biotinylated human BSSL (human, UniProt P19835 21-753, Biotinylated on glycosacarides, 30-40 biotin/BSSL)
T1 construct: hBSSL biotinylated in house; also called b-hBSSL; human BSSL-biotin
T1 sequence: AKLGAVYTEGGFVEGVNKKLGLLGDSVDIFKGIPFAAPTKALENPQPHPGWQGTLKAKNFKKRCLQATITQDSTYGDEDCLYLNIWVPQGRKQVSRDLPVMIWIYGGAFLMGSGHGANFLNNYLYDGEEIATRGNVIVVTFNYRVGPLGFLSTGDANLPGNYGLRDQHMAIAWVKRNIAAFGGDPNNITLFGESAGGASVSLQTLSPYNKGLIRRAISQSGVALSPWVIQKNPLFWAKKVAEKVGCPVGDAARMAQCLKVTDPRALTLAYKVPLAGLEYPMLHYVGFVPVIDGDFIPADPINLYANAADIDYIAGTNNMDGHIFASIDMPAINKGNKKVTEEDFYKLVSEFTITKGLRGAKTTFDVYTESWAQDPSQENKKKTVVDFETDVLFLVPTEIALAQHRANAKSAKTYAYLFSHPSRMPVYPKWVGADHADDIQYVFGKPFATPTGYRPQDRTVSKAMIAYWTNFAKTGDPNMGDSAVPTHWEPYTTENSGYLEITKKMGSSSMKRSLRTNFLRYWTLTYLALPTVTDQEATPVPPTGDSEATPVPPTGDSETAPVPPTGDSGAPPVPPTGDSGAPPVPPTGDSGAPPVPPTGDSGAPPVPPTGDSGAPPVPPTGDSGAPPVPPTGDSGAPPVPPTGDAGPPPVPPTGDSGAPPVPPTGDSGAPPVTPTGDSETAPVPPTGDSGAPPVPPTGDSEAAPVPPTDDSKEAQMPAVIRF
Experiment: flow cytometry displacement assay; 3.0 ug antibody, 1 ug b-hBSSL
measure: percentage reduction of b-hBSSL binding to CD14+ monocytes (%)
Write the answer as a number in %, unit excluded.

Some binders with known percentage reduction of b-hBSSL binding to CD14+ monocytes results, for comparison:
{"binder": "S-SL048-46 hIgG4 S228P (antibody, V domains shown, also called clone 46; mAb46) VH: QVQLVQSGAEVKKPGASVKVSCKASGYTFTSYNMHWVRQAPGQGLEWMGVINPGDGATSYNQKFQGRVTMTRDTSTSTVYMELSSLRSEDTAVYYCARDYYGSSPLGYWGQGTLVTVSS VL: DIQMTQSPSSLSASVGDRVTITCRASSSISYLNWYQQKPGKAPKLLIYAASSLASGVPSRFSGSGSGTDFTLTISSLQPEDFATYYCHQRSSSPTFGQGTKLEIKR", "value.units": "%", "endpoint.result": 61}
{"binder": "S-SL048-18 hIgG4 S228P (antibody, V domains shown, Tested as human IgG4 S228P) VH: QVQLVQSGAEVKKPGASVKVSCKASGYTFTSYNMHWVRQAPGQGLEWMGVINPSDGATSYTQKFKGRVTMTRDTSTSTVYMELSSLRSEDTAVYYCARDYYGSSPLGYWGQGTLVTVSS VL: DIQMTQSPSSLSASVGDRVTITCRASSSISYLNWYQQKPGKAPKLLIYATSRLQSGVPSRFSGSGSGTDFTLTISSLQPEDFATYYCHQRSSTPTFGQGTKLEIK", "value.units": "%", "endpoint.result": 61}
{"binder": "S-SL048-11 hIgG4 S228P (antibody, V domains shown, also called clone 11; mAb11) VH: QVQLVQSGAEVKKPGASVKVSCKASGYTFTSYNMHWVRQAPGQGLEWMGVIYPGDGATSYAQKFKGRVTMTRDTSTSTVYMELSSLRSEDTAVYYCARDYYGSSPLGYWGQGTLVTVSS VL: DIQMTQSPSSLSASVGDRVTITCSASPSISYMNWYQQKPGKAPKLLIYATSSLASGVPSRFSGSGSGTDFTLTISSLQPEDFATYYCHQRSSYPTFGQGTKLEIKR", "value.units": "%", "endpoint.result": 68}

Query: Identify percentage reduction of b-hBSSL binding to CD14+ monocytes associated with the binder S-SL048-118 hIgG4 S228P (antibody, V domains shown, also called clone 118; mAb118) VH: QVQLVQSGAEVKKPGASVKVSCKASGYTFTSYNMHWVRQAPGQGLEWMGVINPGDGATSYAQKFKGRVTMTRDTSTSTVYMELSSLRSEDTAVYYCARDYYGSSPLGYWGQGTLVTVSS VL: DIQMTQSPSSLSASVGDRVTITCSASPSISYMNWYQQKPGKAPKLLIYATSSLPSGVPSRFSGSGSGTDFTLTISSLQPEDFATYYCHQRSSSPTFGQGTKLEIKR
Reply: 58

Query: Identify percentage reduction of b-hBSSL binding to CD14+ monocytes associated with the binder S-SL048-109 hIgG4 S228P (antibody, V domains shown, Tested as human IgG4 S228P) VH: QVQLVQSGAEVKKPGASVKVSCKASGYTFTSYNMHWVRQAPGQGLEWMGVINPSDGATSYAQKFKGRVTMTRDTSTSTVYMELSSLRSEDTAVYYCARDYYGSSPLGYWGQGTLVTVSS VL: DIQMTQSPSSLSASVGDRVTITCRASPSISYLNWYQQKPGKAPKLLIYATSRLASGVPSRFSGSGSGTDFTLTISSLQPEDFATYYCQQRSSSPTFGQGTKLEIK
Reply: 51

Query: Identify percentage reduction of b-hBSSL binding to CD14+ monocytes associated with the binder S-SL048-103 hIgG4 S228P (antibody, V domains shown, Tested as human IgG4 S228P) VH: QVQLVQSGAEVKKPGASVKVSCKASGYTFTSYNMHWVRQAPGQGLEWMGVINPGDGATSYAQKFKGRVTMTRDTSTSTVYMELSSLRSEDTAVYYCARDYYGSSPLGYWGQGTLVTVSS VL: DIQMTQSPSSLSASVGDRVTITCRASSSISYMHWYQQKPGKAPKLLIYATSSLASGVPSRFSGSGSGTDFTLTISSLQPEDFATYYCHQRSSSPTFGQGTKLEIK
Reply: 69

Query: Identify percentage reduction of b-hBSSL binding to CD14+ monocytes associated with the binder S-SL048-41 hIgG4 S228P (antibody, V domains shown, Tested as human IgG4 S228P) VH: QVQLVQSGAEVKKPGASVKVSCKASGYTFTSYNMHWVRQAPGQGLEWIGVIYPGDGATSYAQKFKGRVTMTRDTSTSTVYMELSSLRSEDTAVYYCARDYYGSSPLGYWGQGTLVTVSS VL: DIQMTQSPSSLSASVGDRVTITCRASSSISYMNWYQQKPGKAPKLLIYATSRLPSGVPSRFSGSGSGTDFTLTISSLQPEDFATYYCHQRSSSPTFGQGTKLEIK
Reply: 72

Query: Identify percentage reduction of b-hBSSL binding to CD14+ monocytes associated with the binder S-SL048-81 hIgG4 S228P (antibody, V domains shown, Tested as human IgG4 S228P) VH: QVQLVQSGAEVKKPGASVKVSCKASGYTFTSYNMHWVRQAPGQGLEWIGVINPGDGATSYAQKFQGRVTMTRDTSTSTVYMELSSLRSEDTAVYYCARDYYGSSPLGYWGQGTLVTVSS VL: DIQMTQSPSSLSASVGDRVTITCRASSSISYMHWYQQKPGKAPKLLIYAASSLQSGVPSRFSGSGSGTDFTLTISSLQPEDFATYYCHQRSSSPTFGQGTKLEIK
Reply: 62

Query: Identify percentage reduction of b-hBSSL binding to CD14+ monocytes associated with the binder S-SL048-74 hIgG4 S228P (antibody, V domains shown, Tested as human IgG4 S228P) VH: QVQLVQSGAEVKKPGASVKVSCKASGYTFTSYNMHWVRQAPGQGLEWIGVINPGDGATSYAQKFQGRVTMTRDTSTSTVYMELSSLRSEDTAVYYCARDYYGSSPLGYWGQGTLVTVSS VL: DIQMTQSPSSLSASVGDRVTITCRASQSISYLNWYQQKPGKAPKLLIYAASSLASGVPSRFSGSGSGTDFTLTISSLQPEDFATYYCHQRSSSPTFGQGTKLEIK
Reply: 52

Query: Identify percentage reduction of b-hBSSL binding to CD14+ monocytes associated with the binder S-SL048-116 hIgG4 S228P (antibody, V domains shown, also called mAb116) VH: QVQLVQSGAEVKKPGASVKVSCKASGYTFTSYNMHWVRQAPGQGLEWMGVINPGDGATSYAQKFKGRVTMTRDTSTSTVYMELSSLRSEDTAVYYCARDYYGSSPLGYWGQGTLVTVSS VL: DIQMTQSPSSLSASVGDRVTITCRASPSISYMNWYQQKPGKAPKLLIYATSSLASGVPSRFSGSGSGTDFTLTISSLQPEDFATYYCHQRSSSPTFGQGTKLEIKR
Reply: 64
